Listing: TGI of selected compounds
system: COLO 205 colon; test: NCI tumour cell line growth inhibition, 48 h
QUANTITY: TGI

* CCCC(=O)NC(c1ccc2c(c1)OCO2)c1ccc2cccnc2c1O (stereo not given) | > 100 µM
* CC1(C)OC(=O)C(C)(C)OC1=O | > 100 µM
* CCCCSC1=N/C(=C\c2ccco2)C(=O)N1 | > 100 µM
* NCS(=O)(=O)O | > 100 µM
* CN(C)c1nc(N(C)C)n2nc(-c3ccccc3[N+](=O)[O-])nc2n1 | > 100 µM
* Cn1c(=O)c2c(nc(C[N+]3([O-])CCOCC3)n2C)n(C)c1=O | > 100 µM
* CCOC(=O)N1c2ccccc2S(=O)(=O)c2ccccc21 | > 100 µM
* CCC(CC)C(=O)OC[n+]1cccc(-c2c(COC(=O)NC(C)C)c(COC(=O)NC(C)C)c3n2CCC3)c1 | > 100 µM
* COc1cc(OC)c(OC)cc1/C=C1\C=Cc2ccccc21 | > 100 µM
* CCOC(=O)CNC(=O)CCCn1c(=O)c2c3ccccc3n(C)c2n2nnc(-c3ccccc3)c12 | > 50 µM

###

system: CCRF-CEM leukemia; assay: NCI tumour cell line growth inhibition, 48 h
QUANTITY: TGI

* CC1=CC2(O)OC3(CC2=C(C)C)C(C)CCC13 (stereo not drawn) | > 100 µM
* COc1ccc(C2SC(N)=Nc3c2c(C)nn3C(=O)c2ccc(Cl)cc2)cc1 (stereo not drawn) | > 10 µM
* COc1cc(OC)c(OC)cc1/C=C1\C=Cc2ccccc21 | > 100 µM

###

tested on: DU-145 prostate; assay: NCI tumour cell line growth inhibition, 48 h; in the data active = GI50 below about 0.43 µM; inactive = the rest
Classes used: active, inactive

- C[C@H]1CCC/C=C/[C@@H]2C[C@H](O)C[C@H]2[C@H](O)[C@@H](S(=O)CCN)CC(=O)O1 (stereo not given in full): active
- CC1CCC2C(C)C3C(CC4C5CC=C6CC(OC7OC(CO)C(O)C(OC8OC(CO)C(O)C(O)C8O)C7OC7OC(C)C(O)C(O)C7O)CCC6(C)C5CCC43C)N2C1 (stereo not given): inactive
- O=C1C(Cl)=C(Nc2cccc(C(F)(F)F)c2)C(=O)N1Cc1ccccc1Cl: inactive
- CCCC(=O)NC(c1ccc2c(c1)OCO2)c1ccc2cccnc2c1O (stereo not given): inactive
- CCOC(=O)c1c(C)n(CC(C)C)c2c1cc1oc(=O)c(=O)n3cnc2c13: inactive

###

test system: OVCAR-4 ovarian; test: NCI tumour cell line growth inhibition, 48 h
QUANTITY: TGI

* C[C@@]1(c2ncncc2F)NC(=O)c2cc(-c3cn[nH]c3)ccc21 | > 100 µM
* COc1ccc(NC(=O)c2sc3nc(C)c(C(O)c4ccc(OC)cc4)cc3c2N)cc1 (stereo not drawn) | > 50 µM
* CC(C)CNc1nc(N)[nH]c(=O)c1NC=O | > 100 µM

###

system: HL-60(TB) leukemia; experiment: NCI tumour cell line growth inhibition, 48 h
QUANTITY: TGI

- COc1ccc(-c2c3c(n(C4OC(CO)C(O)C(O)C4O)c(=S)c2C#N)CC(C)(C)CC3=O)cc1 (stereo unspecified): > 100 µM
- CCCC(=O)NC(c1ccc2c(c1)OCO2)c1ccc2cccnc2c1O (stereo unspecified): 4.76 µM
- C/C(=N\NC(=O)/C(C#N)=C\c1ccc(N(CCC#N)CCC#N)cc1)c1ccccc1: > 10 µM
- C#CCOc1ccc2ncnc(Nc3ccc(NC(=O)CCl)cc3)c2c1: 25.2 µM
- CC(=N/NC(=S)Nc1c(C)n(C)n(-c2ccccc2)c1=O)/C(C)=N\NC(=S)Nc1c(C)n(C)n(-c2ccccc2)c1=O: > 100 µM
- Cn1cc2c(=O)n3ncn(-c4ccc(Br)cc4)c3nc2n1: > 100 µM
- C=C1C(=O)O[C@H]2[C@H]1[C@H](OC(=O)/C(C)=C\C)C[C@]1(CO1)[C@@H]1[C@H](OC(C)=O)C=C(C)[C@]21O: 12.9 µM
- COc1ccc2c(c1)N(C(C)=O)CN1C(=O)CCC21 (stereo unspecified): > 100 µM
- O=C(O)c1ccc(S(=O)(=O)N=Nc2c(O)[nH]c3ccccc23)cc1: > 100 µM
- O=c1cc(NCC2CCCCC2)[nH]c(=O)[nH]1: > 100 µM
- COc1cc2c(cc1OC)C(Cl)C(c1ccc(Cl)cc1)=C2Cl (stereo unspecified): 41 µM
- Cc1[nH]c(=O)nc(CC(O)(c2ccccc2)c2ccccc2)c1-c1ccccc1: > 100 µM
- NC(C(F)(F)F)(C(F)(F)F)P(=O)(c1ccccc1)c1ccccc1: > 100 µM
- CC(=O)OC1OC2C(NC(=O)OC(C)(C)C)C1CC2(OCc1ccccc1)OCc1ccccc1 (stereo unspecified): 35.2 µM
- CC1=NN2C(=O)CC(=O)N=C2S1: > 100 µM
- N#CC1=C(C#N)/C(=C(\C#N)C(C#N)C#N)N=C1N: 39.1 µM
- COc1ccc(-n2c3c(c4cc(O)ccc42)C(=O)c2ccccc2C3=O)cc1: > 100 µM
- COc1ccc(OC)c(NC(=O)C(=O)Nn2c(=S)[nH]c3ccccc3c2=O)c1: > 100 µM
- CC(C)(C)C1CCC2(CC1)CCN(CCCN1CCOCC1)CC2: 41.8 µM
- Cn1cnc([N+](=O)[O-])c1SCC(=O)O: > 100 µM
- CC1(C)CCCCCCCCCC(C)(CCCO)C1=O (stereo unspecified): 45 µM
